Where a name gives a salt, the structure may show the parent alone.
IC50, human factor XIa (Homo sapiens, UniProt P03951): measured values

# compound, IC50 (nM)
data = [
    ("Cc1cc(C(=O)NC2CCNCC2)ccc1-c1ccc(C[C@H](NC(=O)[C@H]2CC[C@H](CN)CC2)C(=O)Nc2ccc(-c3nc(C(F)(F)C(F)(F)C(N)=O)n[nH]3)cc2)cc1 [Example 127, hydrochloride]", 1.5),
    ("Cc1cc(C(=O)NC2CCNCC2)ccc1-c1ccc(C[C@H](NC(=O)[C@H]2CC[C@H](CN)CC2)C(=O)Nc2ccc(-c3nn[nH]n3)cc2)cc1 [Example 36]", 1.7),
    ("Cc1cc(C(=O)NC2CCNCC2)ccc1-c1ccc(C[C@H](NC(=O)[C@H]2CC[C@H](CN)CC2)C(=O)Nc2ccc3[nH]c(C(F)(F)C(F)(F)C(F)(F)C(=O)O)nc3c2)cc1 [Example 65, hydrochloride]", 26),
]

* * *

target_of_assay: human factor XIa (Homo sapiens)
Construct: purchased Kordia
method_summary: Measurement of FXIa inhibition (fluorogenic peptide substrate Boc-Glu(OBzl)-Ala-Arg-AMC)
Type: biochemical
condition: factor XIa from Kordia, 15 min preincubation, 30 min at 22° C., fluorescence
Where a name gives a salt, the structure may show the parent alone.
measured_parameter: IC50 (nM)

# compound, measurement_unit, quantitative_readout
records = [
    ("Cc1cc(C(=O)N[C@@H]2CCNC2)ccc1-c1ccc(C[C@H](NC(=O)[C@H]2CC[C@H](CN)CC2)C(=O)Nc2ccc(-c3nc(C(F)(F)C(F)(F)F)n[nH]3)cc2)cc1 [Example 75, hydrochloride]", "nM", 2.5),
    ("Cc1cc(C(=O)NCC[N+](C)(C)C)ccc1-c1ccc(C[C@H](NC(=O)[C@H]2CC[C@H](CN)CC2)C(=O)Nc2ccc(-c3nn[nH]n3)cc2)cc1 [Example 41, hydrochloride]", "nM", 6),
    ("Cl.NC[C@H]1CC[C@H](C(=O)N[C@@H](Cc2ccc(-c3ccc(C(=O)NCCN4CCCC4)cc3)cc2)C(=O)Nc2ccc(-c3nnn[nH]3)cc2)CC1 [Example 91, hydrochloride]", "nM", 7.2),
]

* * *

Recorded IC50 values (human factor XIa (Homo sapiens, UniProt P03951)) are given below.
Counter-ions that a name gives are not always drawn.
measured_parameter: IC50 (µM)

# compound, measured_parameter, measurement_unit, quantitative_readout
data = [
    ("Cc1cc(C(=O)NC2CCNCC2)ccc1-c1ccc(C[C@H](NC(=O)[C@H]2CC[C@H](CN)CC2)C(=O)Nc2ccc(-c3c[nH]cn3)cc2)cc1 [Example 84, hydrochloride]", "IC50", "µM", 0.018),
    ("Cc1cc(C(=O)NC2CCNCC2)ccc1-c1ccc(C[C@H](NC(=O)[C@H]2CC[C@H](CN)CC2)C(=O)Nc2ccc3nc(-n4cccn4)[nH]c3c2)cc1 [Example 60, hydrochloride]", "IC50", "µM", 0.045),
    ("CC(C)NC(=O)c1ccc(-c2ccc(C[C@H](NC(=O)[C@H]3CC[C@H](CN)CC3)C(=O)Nc3cc(F)c4cn[nH]c4c3)cc2)c(Cl)c1 [Example 134, hydrochloride]", "IC50", "µM", 0.0089),
    ("Cc1cc(C(=O)N[C@H]2CC[C@H](N(C)C)CC2)ccc1-c1ccc(C[C@H](NC(=O)[C@H]2CC[C@H](CN)CC2)C(=O)Nc2ccc3[nH]c(C(F)(F)C(F)(F)F)nc3c2)cc1 [Example 78, hydrochloride]", "IC50", "µM", 0.012),
    ("Cc1cc(C(=O)NC2CCCNC2=O)ccc1-c1ccc(C[C@H](NC(=O)[C@H]2CC[C@H](CN)CC2)C(=O)Nc2ccc(-c3nnc(C(F)(F)C(F)(F)C(=O)O)[nH]3)cc2)cc1 (some centres unmarked) [Example 155, hydrochloride]", "IC50", "µM", 0.001),
]

* * *

pIC50: −log10 of the molar value. Structures can show the parent of a compound that is named as a salt.
human plasmin (Homo sapiens): reported pIC50 for various compounds.
Sequence (P00747 581-810 limits assumed): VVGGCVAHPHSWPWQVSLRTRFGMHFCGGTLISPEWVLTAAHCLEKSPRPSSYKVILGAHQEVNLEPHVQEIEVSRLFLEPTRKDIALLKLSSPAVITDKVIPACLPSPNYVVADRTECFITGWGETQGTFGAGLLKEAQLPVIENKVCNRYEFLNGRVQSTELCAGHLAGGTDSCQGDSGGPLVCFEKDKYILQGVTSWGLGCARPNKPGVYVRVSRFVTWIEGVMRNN
Sequence (P00747 97-580 partner limits assumed): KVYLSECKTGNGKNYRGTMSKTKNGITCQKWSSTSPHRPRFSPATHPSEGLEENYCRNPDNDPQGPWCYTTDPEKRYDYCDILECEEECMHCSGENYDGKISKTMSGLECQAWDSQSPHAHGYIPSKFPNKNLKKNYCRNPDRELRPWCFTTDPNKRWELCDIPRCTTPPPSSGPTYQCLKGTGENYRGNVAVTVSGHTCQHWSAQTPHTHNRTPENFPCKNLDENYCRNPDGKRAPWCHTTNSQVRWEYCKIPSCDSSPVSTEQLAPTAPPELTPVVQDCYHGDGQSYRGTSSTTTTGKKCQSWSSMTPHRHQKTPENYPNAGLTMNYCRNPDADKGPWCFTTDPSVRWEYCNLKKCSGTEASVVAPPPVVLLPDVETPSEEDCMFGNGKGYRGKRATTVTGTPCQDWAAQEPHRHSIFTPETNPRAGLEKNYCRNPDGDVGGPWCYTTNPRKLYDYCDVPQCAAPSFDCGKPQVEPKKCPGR
measured_parameter: pIC50

# compound, quantitative_readout
measured = [
    ("Cc1cc(C(=O)NC(C)C)ccc1-c1ccc(C[C@H](NC(=O)[C@H]2CC[C@H](CN)CC2)C(=O)Nc2ccc3nc[nH]c3c2)cc1 [Example 142, hydrochloride]", 8.68),
    ("Cc1cc(C(=O)N2CCC3CNC(=O)C32)ccc1-c1ccc(C[C@H](NC(=O)[C@H]2CC[C@H](CN)CC2)C(=O)Nc2ccc3cn[nH]c3c2)cc1 (stereo partly shown) [Example 163, hydrochloride]", 8.06),
    ("Cc1cc(C(=O)NC2CCC2)ccc1-c1ccc(C[C@H](NC(=O)[C@H]2CC[C@H](CN)CC2)C(=O)Nc2ccc(-c3nnn[nH]3)cc2)cc1 [Example 138, hydrochloride]", 8.64),
    ("Cc1cc(C(=O)NC(C)C)ccc1-c1ccc(C[C@H](NC(=O)[C@H]2CC[C@H](CN)CC2)C(=O)Nc2ccc3c(c2)[nH]c(=O)n3C)cc1 [Example 140, hydrochloride]", 8.82),
    ("Cc1cc(C(=O)NC2CCC2)ccc1-c1ccc(C[C@H](NC(=O)[C@H]2CC[C@H](CN)CC2)C(=O)Nc2cc(Cl)c3oc(=O)[nH]c3c2)cc1 [Example 102, hydrochloride]", 9.13),
    ("Cc1cc(C(=O)NC(C)C)ccc1-c1ccc(C[C@H](NC(=O)[C@H]2CC[C@H](CN)CC2)C(=O)Nc2ccc3c(=O)[nH][nH]c3c2)cc1 [Example 135, hydrochloride]", 9.02),
    ("Cc1cc(C(=O)NC2CC2)ccc1-c1ccc(C[C@H](NC(=O)[C@H]2CC[C@H](CN)CC2)C(=O)Nc2ccc3[nH]nnc3c2)cc1 [Example 141, hydrochloride]", 8.80),
]

* * *

target_of_assay: human factor XIa (Homo sapiens, UniProt P03951)
Construct: purchased Kordia
Sequence (P03951 388-625 limits assumed): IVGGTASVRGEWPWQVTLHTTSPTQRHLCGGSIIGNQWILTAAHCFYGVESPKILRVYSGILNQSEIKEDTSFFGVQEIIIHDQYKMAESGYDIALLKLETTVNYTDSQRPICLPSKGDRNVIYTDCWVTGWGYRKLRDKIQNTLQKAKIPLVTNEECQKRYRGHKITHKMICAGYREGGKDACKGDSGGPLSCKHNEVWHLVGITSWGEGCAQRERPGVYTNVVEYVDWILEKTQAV
Sequence (P03951 19-387 partner limits assumed): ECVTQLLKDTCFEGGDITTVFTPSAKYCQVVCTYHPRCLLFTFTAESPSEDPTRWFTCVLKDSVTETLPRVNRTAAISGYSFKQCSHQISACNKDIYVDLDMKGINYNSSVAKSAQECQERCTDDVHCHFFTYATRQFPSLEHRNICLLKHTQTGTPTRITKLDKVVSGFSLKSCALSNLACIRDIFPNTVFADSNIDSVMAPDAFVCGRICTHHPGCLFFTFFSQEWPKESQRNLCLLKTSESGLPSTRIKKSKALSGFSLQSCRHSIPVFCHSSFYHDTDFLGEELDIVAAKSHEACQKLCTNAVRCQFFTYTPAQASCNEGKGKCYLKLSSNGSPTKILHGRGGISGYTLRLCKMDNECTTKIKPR
method_summary: Measurement of FXIa inhibition (fluorogenic peptide substrate Boc-Glu(OBzl)-Ala-Arg-AMC)
Format: biochemical
condition: factor XIa from Kordia, 15 min preincubation, 30 min at 22° C., fluorescence
pIC50: −log10 of the molar value. Counter-ions that a name gives are not always drawn.

# compound, pIC50
measured = [
    ("Cc1cc(C(=O)NC2CCC(N(C)C)CC2)ccc1-c1ccc(C[C@H](NC(=O)[C@H]2CC[C@H](CN)CC2)C(=O)Nc2ccc(-c3nn[nH]n3)cc2)cc1 (stereo partly drawn) [Example 70, hydrochloride]", 8.80),
    ("COC(=O)C1CCC(NC(=O)c2ccc(-c3ccc(C[C@H](NC(=O)[C@H]4CC[C@H](CN)CC4)C(=O)Nc4ccc(-c5nnn[nH]5)cc4)cc3)c(C)c2)C(=O)N1 (stereo partly drawn) [Example 151, hydrochloride]", 9.01),
    ("NC[C@H]1CC[C@H](C(=O)N[C@@H](Cc2ccc(-c3ccc(C(=O)N4CCNCC4)cc3)cc2)C(=O)Nc2ccc(-c3nn[nH]n3)cc2)CC1 [Example 47, trifluoroacetate]", 7.80),
]

* * *

Entries with their measured pIC50, system human factor XIa (Homo sapiens, UniProt P03951):
pIC50: −log10 of the molar value. Where a name gives a salt, the structure may show the parent alone.

# compound, target_of_assay, pIC50
rows = [
    ("NC[C@H]1CC[C@H](C(=O)N[C@@H](Cc2ccc(-c3ccc(C(=O)NC4CC4)cc3)cc2)C(=O)Nc2ccc(-c3nnn[nH]3)cc2)CC1 [Example 62, hydrochloride]", "human factor XIa (Homo sapiens, UniProt P03951)", 8.54),
    ("CC(NC(=O)c1ccc(-c2ccc(CC(NC(=O)[C@H]3CC[C@H](CN)CC3)C(=O)Nc3ccc(-c4nnn[nH]4)cc3)cc2)c(Cl)c1)C1CC1 (stereo partly shown) [Example 136, hydrochloride]", "human factor XIa (Homo sapiens, UniProt P03951)", 8.92),
    ("Cc1cc(C(=O)NCC2CCN(C)CC2)ccc1-c1ccc(C[C@H](NC(=O)[C@H]2CC[C@H](CN)CC2)C(=O)Nc2ccc(-c3nnc(C(F)(F)C(F)(F)C(=O)O)[nH]3)cc2)cc1 [Example 108, hydrochloride]", "human factor XIa (Homo sapiens, UniProt P03951)", 8.72),
    ("Cc1cc(C(=O)NC2CC(O)C2)ccc1-c1ccc(C[C@H](NC(=O)[C@H]2CC[C@H](CN)CC2)C(=O)Nc2ccc3cn[nH]c3c2)cc1 (stereo partly shown) [Example 164, hydrochloride]", "human factor XIa (Homo sapiens, UniProt P03951)", 8.12),
    ("Cc1cc(C(=O)NC2CCNCC2)ccc1-c1ccc(C[C@H](NC(=O)[C@H]2CC[C@H](CN)CC2)C(=O)Nc2ccc3nc(C(F)(F)F)[nH]c3c2)cc1 [Example 52, hydrochloride]", "human factor XIa (Homo sapiens, UniProt P03951)", 7.85),
    ("Cc1cc(C(=O)NC2CCNCC2)ccc1-c1ccc(C[C@H](NC(=O)[C@H]2CC[C@H](CN)CC2)C(=O)Nc2ccc(-c3nnc(CC(C)C)[nH]3)cc2)cc1 [Example 58, hydrochloride]", "human factor XIa (Homo sapiens, UniProt P03951)", 7.39),
    ("Cc1cc(-c2ccc(C[C@H](NC(=O)[C@H]3CC[C@H](CN)CC3)C(=O)Nc3ccc(-c4nnn[nH]4)cc3)cc2)ccc1C(=O)NC1CC1 [Example 95, hydrochloride]", "human factor XIa (Homo sapiens, UniProt P03951)", 8.62),
    ("NC[C@H]1CC[C@H](C(=O)N[C@@H](Cc2ccc(-c3ccc(C(=O)NC4CCNCC4)c(F)c3)cc2)C(=O)Nc2ccc(-c3nn[nH]n3)cc2)CC1 [Example 45, hydrochloride]", "human factor XIa (Homo sapiens, UniProt P03951)", 8.21),
    ("Cc1cc(C(=O)N[C@H]2CCNC2=O)ccc1-c1ccc(C[C@H](NC(=O)[C@H]2CC[C@H](CN)CC2)C(=O)Nc2cc(F)c3oc(=O)[nH]c3c2)cc1 [Example 99, hydrochloride]", "human factor XIa (Homo sapiens, UniProt P03951)", 8.33),
    ("CNC1CCC(NC(=O)c2ccc(-c3ccc(C[C@H](NC(=O)[C@H]4CC[C@H](CN)CC4)C(=O)Nc4ccc(-c5nnn[nH]5)cc4)cc3)c(C)c2)CC1 (stereo partly shown) [Example 147, hydrochloride]", "human factor XIa (Homo sapiens, UniProt P03951)", 8.77),
    ("Cc1cc(C(=O)NC2CCC(N(C)C)CC2(C)C)ccc1-c1ccc(C[C@H](NC(=O)[C@H]2CC[C@H](CN)CC2)C(=O)Nc2ccc(-c3nnn[nH]3)cc2)cc1 (stereo partly shown) [Example 144, hydrochloride]", "human factor XIa (Homo sapiens, UniProt P03951)", 8.74),
    ("Cc1cc(C(=O)NC2CNCC(F)(F)C2)ccc1-c1ccc(C[C@H](NC(=O)[C@H]2CC[C@H](CN)CC2)C(=O)Nc2ccc(-c3nn[nH]n3)c(F)c2)cc1 (stereo partly shown) [Example 90, hydrochloride]", "human factor XIa (Homo sapiens, UniProt P03951)", 8.80),
    ("CCN(CC)CCCNC(=O)c1ccc(-c2ccc(C[C@H](NC(=O)[C@H]3CC[C@H](CN)CC3)C(=O)Nc3ccc(-c4nn[nH]n4)cc3)cc2)c(C)c1 [Example 29, hydrochloride]", "human factor XIa (Homo sapiens, UniProt P03951)", 8.52),
    ("Cc1cc(C(=O)NCCCN(C)C)ccc1-c1ccc(C[C@H](NC(=O)[C@H]2CC[C@H](CN)CC2)C(=O)Nc2ccc3[nH]c(C(F)(F)C(F)(F)F)nc3c2)cc1 [Example 81, hydrochloride]", "human factor XIa (Homo sapiens, UniProt P03951)", 7.66),
    ("Cc1cc(C(=O)NC2CCNCC2)ccc1-c1ccc(C[C@H](NC(=O)[C@H]2CC[C@H](CN)CC2)C(=O)Nc2ccc3[nH]c(-c4ccccn4)nc3c2)cc1 [Example 51, hydrochloride]", "human factor XIa (Homo sapiens, UniProt P03951)", 7.96),
    ("Cc1cc(C(=O)N[C@H]2CC[C@H](O)CC2)ccc1-c1ccc(C[C@H](NC(=O)[C@H]2CC[C@H](CN)CC2)C(=O)Nc2ccc(-c3nnc(C(F)(F)C(F)(F)C(=O)O)[nH]3)cc2)cc1 (single isomer, unassigned; enantiomer 1) [Example 104]", "human factor XIa (Homo sapiens, UniProt P03951)", 9.40),
    ("Cc1cc(C(=O)NC2CCN(C(C)C)CC2)ccc1-c1ccc(C[C@H](NC(=O)[C@H]2CC[C@H](CN)CC2)C(=O)Nc2ccc(-c3nn[nH]n3)c(F)c2)cc1 [Example 89, hydrochloride]", "human factor XIa (Homo sapiens, UniProt P03951)", 8.37),
    ("Cc1cc(C(=O)NCC(=O)N2CCC(N(C)C)CC2)ccc1-c1ccc(C[C@H](NC(=O)[C@H]2CC[C@H](CN)CC2)C(=O)Nc2ccc(-c3nnc(C(F)(F)C(F)(F)C(=O)O)[nH]3)cc2)cc1 [Example 114, hydrochloride]", "human factor XIa (Homo sapiens, UniProt P03951)", 8.59),
    ("Cc1cc(C(=O)N[C@H]2CCNC2)ccc1-c1ccc(C[C@H](NC(=O)[C@H]2CC[C@H](CN)CC2)C(=O)Nc2ccc3c(=O)[nH][nH]c3c2)cc1 [Example 25, hydrochloride]", "human factor XIa (Homo sapiens, UniProt P03951)", 7.85),
]
